experiment: Metabolic stability test: liver microsomal stability assay; type: in vitro ADME, mouse; settings: mouse liver microsomes 0.5 mg protein/mL, compound 1 µM, absence of NADPH
Starred links: 1 amine or outer side, 2 acyl side, 3 side chain; linkers in the order of their positions; H or OH if unused. Positions of bridges follow the written chain, without caps; N, C: chain ends. Non-standard residues stand in square brackets, D forms with d. Residues, ends and D or L forms follow the SMILES beside them. *: point of attachment. NMeF = CN[C@@H](Cc1ccccc1)C(=O)O; NMeGABA = CN(CCCC(=O)[*:2])[*:1]; NMeL = CN[C@@H](CC(C)C)C(=O)O; NMeAbu = CC[C@H](NC)C(=O)O; NMeA = CN[C@@H](C)C(=O)O; Piperidide = C1CCN(*)CC1
parameter: Mouse Hepatic Microsome CLh,int NADPH(-) (µL/min/mg Protein)
Report the value in µL/min/mg Protein with no unit label.

Mouse Hepatic Microsome CLh,int NADPH(-) in this record for CC[C@H]1C(=O)N(C)[C@@H](CC(C)C)C(=O)N[C@@H]([C@@H](C)O)C(=O)N(C)[C@@H](C)C(=O)N(C)[C@@H](CC(C)C)C(=O)N[C@H](C(=O)N2CCCCC2)CC(=O)N(C)CCCC(=O)N[C@@H](CC(C)C)C(=O)N(C)[C@@H](CC(C)C)C(=O)N(C)[C@@H](C)C(=O)N(C)[C@@H](Cc2ccccc2)C(=O)N[C@@H](C)C(=O)N(C)[C@@H](Cc2ccccc2)C(=O)N1C [pd117] ([NMeGABA]L[NMeL][NMeA][NMeF]A[NMeF][NMeAbu][NMeL]T[NMeA][NMeL]D-Piperidide; lactam N-13) : 14.4
